Task for the reader: assign each of the following molecules its reported IC50.
# Method summary: Cytotoxicity against mouse Hepa1clc7 cells after 72 hrs
# Format: functional, cell-based
Unit µM implied. Number only.

Enquiry: Supply reported IC50 belonging to this molecule: COc1ccc([C@@H]2CC(=O)c3c(O)c(CC=C(C)C)c4c(c3O2)C=CC(C)(C)O4)cc1O
Return: 3.9

Enquiry: Input COc1cc(/C=C/c2ccc(O)cc2)cc2c1C=CC(C)(C)O2 , output reported IC50.
Return: 8.5

Enquiry: Identify the reported IC50 for the following entry. COc1cc(/C=C/c2ccc3c(c2)OC(C)(C)C=C3)cc(OC)c1OC
Return: 7

###

Kindly supply the reported pIC50 values for the records listed here.
# Method summary: Inhibition of bovine NADH-ubiquinone oxidoreductase
# Set-up: species or system Bos taurus
In simple prose, pIC50 is minus the logarithm base ten of a concentration in moles per litre.

Enquiry: Tell me its pIC50 given Oc1ccc(/C=C/c2cc(O)cc(O)c2)cc1 as the entry.
Return: 4.59

Enquiry: Give pIC50 for COc1ccc([C@@H]2CC(=O)c3c(O)c(CC=C(C)C)c4c(c3O2)C=CC(C)(C)O4)cc1O
Return: 5.70

Enquiry: Given COc1ccc([C@@H]2CC(=O)c3cc(CC=C(C)C)c4c(c3O2)C=CC(C)(C)O4)cc1OC , respond with its pIC50.
Return: 5.59

Enquiry: Report pIC50, nothing else, for this molecule: COc1cc(/C=C/c2ccc3c(c2)OC(C)(C)C=C3)cc(OC)c1OC
Return: 5.31

Enquiry: Annotate the molecule COc1cc(/C=C/C(=O)c2ccc3c(c2O)C=CC(C)(C)O3)ccc1O with its measured pIC50.
Return: 5.32

Enquiry: Identify measured pIC50 corresponding to COc1cc([C@@H]2CC(=O)c3c(O)c(CC=C(C)C)c4c(c3O2)C=CC(C)(C)O4)ccc1O
Return: 6.17

Enquiry: Give reported pIC50 value for COc1cc(/C=C/c2cc(OC)c3c(c2)OC(C)(C)C=C3)ccc1O
Return: 5.09

Enquiry: Note pIC50 for the molecule shown: COc1cc(/C=C/c2ccc(O)cc2)cc2c1C=CC(C)(C)O2
Return: 5.28

Enquiry: Report measured pIC50; entry is CC1(C)C=Cc2c(ccc(C(=O)/C=C/c3ccc(O)cc3)c2O)O1
Return: 5.31

Enquiry: Report pIC50, nothing else, for this molecule: COc1ccc([C@@H]2CC(=O)c3c(O)c(CC=C(C)C)c4c(c3O2)C=CC(C)(C)O4)cc1OC
Return: 5.68

Enquiry: Tell me measured pIC50 for O=c1c(-c2ccc(O)cc2)coc2cc(O)cc(O)c12 please.
Return: 4.46

These data points were gathered from ChEMBL document CHEMBL1158008.
